Origin of the recorded values: patent US12180192B2

Target: human thyroid receptor alpha ligand-binding domain (LBD) (Homo sapiens)
Sequence (P10827 163-410 isoform P10827-2 limits assumed, other chains not shown): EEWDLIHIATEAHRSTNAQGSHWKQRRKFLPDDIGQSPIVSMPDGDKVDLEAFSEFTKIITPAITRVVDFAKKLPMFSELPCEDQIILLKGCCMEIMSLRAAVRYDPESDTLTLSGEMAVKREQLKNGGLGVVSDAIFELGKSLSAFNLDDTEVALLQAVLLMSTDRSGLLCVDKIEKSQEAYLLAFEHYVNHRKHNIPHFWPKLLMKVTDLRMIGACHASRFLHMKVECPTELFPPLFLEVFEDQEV
Assay: TR-FRET thyroid receptor alpha coactivator assay (THR biochemical assay, Assay 1)
Conditions: Table 4, THR-alpha, read-out: Activity category Assay 1 (EC50, THR-alpha agonist activity)
reported property: EC50

I have 3 compounds here; please give me EC50 for each one.
1. Cc1cc(-c2cc(=O)[nH]nc2Oc2c(Cl)cc(-n3ncc(=O)[nH]c3=O)cc2Cl)ccn1 [Compound 142]
2. CC(C)c1c[nH]c2ccc(Oc3c(Cl)cc(-n4nc(C#N)c(=O)[nH]c4=O)cc3Cl)cc12 [Compound 1]
3. CC(C)[C@H](C)c1cc(Oc2c(Cl)cc(-n3nc(N)c(=O)[nH]c3=O)cc2Cl)n[nH]c1=O [Compound 170]

1. > 25 µM
2. < 0.05 µM
3. > 25 µM

Using the record for Cc1cncc(-c2cc(=O)[nH]nc2Oc2c(Cl)cc(-n3ncc(=O)[nH]c3=O)cc2Cl)c1 [Compound 138] , state its measured EC50.
> 25 µM

---

Biological target: human thyroid receptor beta ligand-binding domain (LBD) (Homo sapiens, UniProt P10828)
Construct: purchased Invitrogen
Experiment: TR-FRET thyroid receptor beta coactivator assay (THR biochemical assay, Assay 1)
Conditions: Table 5; Assay 1; THRβ; read-out: Activity category Assay 1 THRβ (Emax)
reported property: Emax

Consider the following illustrative entries.
>>> df
                                   molecule     result
0  Nc1nn(-c2cc(Cl)c(Oc3cc(Cc4ccc(=O)[nH]n4)c(=O)[nH]n3)c(Cl)c2)c(=O)[nH]c1=O [Compound 160]      < 50%
1  Nc1nn(-c2cc(Cl)c(Oc3cc(-c4cc5ccccn5n4)c(=O)[nH]n3)c(Cl)c2)c(=O)[nH]c1=O [Compound 130]      < 50%
2  Cc1cc(-n2nc(C#N)c(=O)[nH]c2=O)cc(C)c1Cc1ccc2[nH]cc(C(C)C)c2c1 [Compound 3]  50 to 75%
3  Nc1nn(-c2cc(Cl)c(Oc3cc(C4CCC4)c(=O)[nH]n3)c(Cl)c2)c(=O)[nH]c1=O [Compound 40]  50 to 75%
4  CCCCCc1n[nH]c2ccc(Cc3c(C)cc(-n4nc(C#N)c(=O)[nH]c4=O)cc3C)cc12 [Compound 32]      > 75%
5  CC1(C)CC(c2cc(Oc3c(Cl)cc(-n4nc(N)c(=O)[nH]c4=O)cc3Cl)n[nH]c2=O)CCO1 (stereo not shown) [Compound 76]      < 50%

# input for lookup
Using the record for CC(C)c1n[nH]c2nnc(Oc3c(Cl)cc(-n4nc(C#N)c(=O)[nH]c4=O)cc3Cl)cc12 [Compound 75A] , state its measured Emax.
50 to 75%

---

Biological target: human thyroid receptor beta ligand-binding domain (LBD) (Homo sapiens, UniProt P10828)
Assay: TR-FRET thyroid receptor beta coactivator assay (THR biochemical assay, Assay 1)
Details: THR-beta, TR-FRET coactivator assay; read-out: Activity category Assay 1 (EC50, THR-beta agonist)
reported property: EC50

In [3]: df
Out[3]:
                                   compound                                    system        result
0  Nc1nn(-c2cc(Cl)c(Oc3cc(-c4ccc5ncccc5c4)c(=O)[nH]n3)c(Cl)c2)c(=O)[nH]c1=O  human thyroid receptor beta ligand-binding domain (LBD) (Homo sapiens, UniProt P10828)    > 25000 nM
1  Nc1nn(-c2cc(Cl)c(Oc3cc(-c4cc5ccccn5n4)c(=O)[nH]n3)c(Cl)c2)c(=O)[nH]c1=O  human thyroid receptor beta ligand-binding domain (LBD) (Homo sapiens, UniProt P10828)    > 25000 nM
2  Nc1nn(-c2cc(Cl)c(Oc3cc(C4CC5(CCC5)C4)c(=O)[nH]n3)c(Cl)c2)c(=O)[nH]c1=O  human thyroid receptor beta ligand-binding domain (LBD) (Homo sapiens, UniProt P10828)  50 to 250 nM

I have 4 compounds here; please give me EC50 for each one.
1. Cc1cc(-n2nc(N)c(=O)[nH]c2=O)cc(Cl)c1Oc1cc(C(C)C)c(=O)[nH]n1
2. Cc1cc(-n2ncc(=O)[nH]c2=O)cc(C)c1Cc1cnc2[nH]cc(C(C)C)c2n1
3. CC(c1cc(Oc2c(Cl)cc(-n3nc(N)c(=O)[nH]c3=O)cc2Cl)n[nH]c1=O)C1CC(F)(F)C1 (stereo not shown) [Compound 61]
4. CC(C)[C@H](C)c1cc(Oc2c(Cl)cc(-n3nc(N)c(=O)[nH]c3=O)cc2Cl)n[nH]c1=O

1: 50 to 250 nM; 2: < 50 nM; 3: < 50 nM; 4: 50 to 250 nM

---

Target: THR alpha (Homo sapiens, UniProt P10827)
Construct: expressed in transfected cells; host or cells: HEK293T (ATCC CRL-3216)
Sequence (P10827 1-410 isoform P10827-2): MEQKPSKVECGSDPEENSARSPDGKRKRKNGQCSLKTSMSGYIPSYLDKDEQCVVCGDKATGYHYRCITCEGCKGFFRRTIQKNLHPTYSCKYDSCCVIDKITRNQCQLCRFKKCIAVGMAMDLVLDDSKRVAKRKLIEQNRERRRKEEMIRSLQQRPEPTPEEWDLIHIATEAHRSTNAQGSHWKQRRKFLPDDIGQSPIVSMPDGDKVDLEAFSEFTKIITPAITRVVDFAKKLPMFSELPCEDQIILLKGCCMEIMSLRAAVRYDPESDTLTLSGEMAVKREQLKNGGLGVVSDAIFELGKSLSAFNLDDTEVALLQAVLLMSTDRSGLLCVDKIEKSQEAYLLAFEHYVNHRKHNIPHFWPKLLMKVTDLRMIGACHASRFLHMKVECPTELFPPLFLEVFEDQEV
Sequence (P19793 whole entry partner): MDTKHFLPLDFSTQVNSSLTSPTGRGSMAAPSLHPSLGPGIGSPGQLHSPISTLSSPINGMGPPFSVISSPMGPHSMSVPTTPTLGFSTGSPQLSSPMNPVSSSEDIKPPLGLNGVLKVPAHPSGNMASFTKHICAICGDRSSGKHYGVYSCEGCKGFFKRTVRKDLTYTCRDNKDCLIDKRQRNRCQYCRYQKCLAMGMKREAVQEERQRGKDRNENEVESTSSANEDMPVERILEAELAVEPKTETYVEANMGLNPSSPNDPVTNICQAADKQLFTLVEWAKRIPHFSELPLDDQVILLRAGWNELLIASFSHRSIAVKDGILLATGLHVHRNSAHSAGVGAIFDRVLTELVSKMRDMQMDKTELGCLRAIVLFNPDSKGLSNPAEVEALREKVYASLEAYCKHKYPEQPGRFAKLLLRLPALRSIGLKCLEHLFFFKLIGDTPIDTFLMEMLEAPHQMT
Experiment: HEK293T THR alpha/RXR luciferase reporter assay (Assay 2)
Assay type: cell-based
Details: HEK-293T, Table 5; Assay 2; THRα; read-out: Activity category Assay 2 THRα (Emax)
I'd be grateful if you could share measured Emax for these entries.

Consider the following illustrative entries.
>>> print(df.to_string())
                                   compound     result
0  Nc1nn(-c2cc(Cl)c(Oc3cc(C4Cc5ccccc5C4)c(=O)[nH]n3)c(Cl)c2)c(=O)[nH]c1=O      < 50%
1  Nc1nn(-c2cc(Cl)c(Oc3cc(C45CC(C4)C5)c(=O)[nH]n3)c(Cl)c2)c(=O)[nH]c1=O      < 50%
2  Cc1cc(-n2nc(N)c(=O)[nH]c2=O)cc(C)c1Cc1ccc2c(c1)C1(CC1)C(=O)N2  50 to 75%
3  N#CC1CCC1c1cc(Oc2c(Cl)cc(-n3nc(N)c(=O)[nH]c3=O)cc2Cl)n[nH]c1=O (stereo not drawn)      < 50%
4  Nc1nn(-c2cc(Cl)c(Oc3cc(C4CC(F)(F)C4)c(=O)[nH]n3)c(Cl)c2)c(=O)[nH]c1=O      < 50%
5  COC(=O)c1c[nH]c2ccc(Oc3c(Cl)cc(-n4nc(C#N)c(=O)[nH]c4=O)cc3Cl)cc12  50 to 75%
6  CC1(C)CN(c2cc(Oc3c(Cl)cc(-n4nc(N)c(=O)[nH]c4=O)cc3Cl)n[nH]c2=O)C1      < 50%
7  CC1(C)CC(c2cc(Oc3c(Cl)cc(-n4nc(N)c(=O)[nH]c4=O)cc3Cl)n[nH]c2=O)CCO1 (stereo not drawn)      < 50%

I have 3 compounds here; please give me Emax for each one.
1. Nc1nn(-c2cc(Cl)c(Oc3cc(-c4cccc(OC(F)F)c4)c(=O)[nH]n3)c(Cl)c2)c(=O)[nH]c1=O
2. CC(c1c[nH]c2ccc(Oc3c(Cl)cc(-n4nc(C#N)c(=O)[nH]c4=O)cc3Cl)cc12)C(F)(F)F (stereo not drawn)
3. Cc1ccc(-c2cc(Oc3c(Cl)cc(-n4nc(N)c(=O)[nH]c4=O)cc3Cl)n[nH]c2=O)cc1C

50 to 75%
> 75%
< 50%

---

Target: human thyroid receptor beta ligand-binding domain (LBD) (Homo sapiens)
Construct: purchased Invitrogen
Sequence (P10828 217-461 limits assumed): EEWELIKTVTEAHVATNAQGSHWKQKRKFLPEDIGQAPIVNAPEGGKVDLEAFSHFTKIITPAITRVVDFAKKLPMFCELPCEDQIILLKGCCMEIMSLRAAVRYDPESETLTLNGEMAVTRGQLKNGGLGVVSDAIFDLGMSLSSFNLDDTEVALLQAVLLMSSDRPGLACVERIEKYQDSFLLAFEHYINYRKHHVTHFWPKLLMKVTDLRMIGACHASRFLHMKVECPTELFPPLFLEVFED
Experiment: TR-FRET thyroid receptor beta coactivator assay (THR biochemical assay, Assay 1)
Details: Table 5; Assay 1; THRβ; read-out: Activity category Assay 1 THRβ (Emax)
reported property: Emax

Consider the following illustrative entries.
In [3]: df
Out[3]:
                           smiles_structure  result
0  Nc1nn(-c2cc(Cl)c(Oc3cc(C4Cc5ccccc5C4)c(=O)[nH]n3)c(Cl)c2)c(=O)[nH]c1=O   < 50%
1  Nc1nn(-c2cc(Cl)c(Oc3cc(-c4cnc5ccccc5c4)c(=O)[nH]n3)c(Cl)c2)c(=O)[nH]c1=O   < 50%
2  Nc1nn(-c2cc(Cl)c(Oc3cc(C4CCCCC4)c(=O)[nH]n3)c(Cl)c2)c(=O)[nH]c1=O   < 50%

I have 4 compounds here; please give me Emax for each one.
1. Nc1nn(-c2cc(Cl)c(Oc3cc(-c4ccccc4)c(=O)[nH]n3)c(Cl)c2)c(=O)[nH]c1=O
2. Nc1nn(-c2cc(Cl)c(Oc3cc(-c4ccc5c(c4)CCCO5)c(=O)[nH]n3)c(Cl)c2)c(=O)[nH]c1=O
3. CC(C)c1cc(Oc2c(Cl)cc(-n3nc(C#N)c(=O)[nH]c3=O)c3c2CC3)n[nH]c1=O
4. Nc1nn(-c2cc(Cl)c(Oc3cc(-c4ccc5c(c4)CCCC5)c(=O)[nH]n3)c(Cl)c2)c(=O)[nH]c1=O

1: < 50%; 2: < 50%; 3: < 50%; 4: < 50%
